- assay_notes: Cmax in mouse at 20 mg/kg, sc
- Type: ADME, organism-based
- Set-up: route subcutaneous, dose 20 mg/kg
- protocol_conditions: in vivo
parameter_measured: Cmax (ng/mL)
# unit: ng/mL | format: bare number

Briefly, Cmax measured for `C[C@H](CCCC(C)(C)O)[C@H]1CC[C@H]2[C@@H]3[C@H](O)C=C4C[C@@H](O)CC[C@]4(C)[C@H]3CC[C@]12C` : 4340

###

- assay_notes: Metabolic stability in mouse liver microsomes assessed as half life
- Type: ADME, Microsome
parameter_measured: half-life (min)
Respond numerically; units are min and should not be typed.

Please fill in: half-life reported for `C[C@H](CCCC(C)(C)O)[C@H]1CC[C@H]2[C@@H]3[C@H](O)C=C4C[C@@H](O)CC[C@]4(C)[C@H]3CC[C@]12C` = 11

###

- assay_notes: Cmax in mouse at 20 mg/kg, ip
- Type: ADME, organism-based
- Design: route intraperitoneal, dose 20 mg/kg
- protocol_conditions: in vivo
parameter_measured: Cmax (ng/mL)
Value expressed in ng/mL; do not type the unit.

Form field Cmax, entry `C[C@H](CCCC(C)(C)O)[C@H]1CC[C@H]2[C@@H]3[C@H](O)C=C4C[C@@H](O)CC[C@]4(C)[C@H]3CC[C@]12C` : 4460

###

- assay_notes: Tmax in mouse at 20 mg/kg, sc
- Type: ADME, organism-based
- protocol_conditions: in vivo
parameter_measured: Tmax
Don't forget the unit after the value.

Sure, the documented Tmax for `C[C@H](CCCC(C)(C)O)[C@H]1CC[C@H]2[C@@H]3[C@H](O)C=C4C[C@@H](O)CC[C@]4(C)[C@H]3CC[C@]12C` is 19.8 min

###

- assay_notes: AUClast in mouse at 20 mg/kg, ip
- Format: ADME, organism-based
- Set-up: route intraperitoneal, time 0 - last, dose 20 mg/kg
- protocol_conditions: in vivo
parameter_measured: AUC(0-t) (ng·h/mL)
Record the value in ng·h/mL, omitting the unit from your answer.

Given item `C[C@H](CCCC(C)(C)O)[C@H]1CC[C@H]2[C@@H]3[C@H](O)C=C4C[C@@H](O)CC[C@]4(C)[C@H]3CC[C@]12C` , the value recorded as its AUC(0-t) is 2940

###

- target_or_test_system: UniProt P32249
- Sequence (P32249 whole entry): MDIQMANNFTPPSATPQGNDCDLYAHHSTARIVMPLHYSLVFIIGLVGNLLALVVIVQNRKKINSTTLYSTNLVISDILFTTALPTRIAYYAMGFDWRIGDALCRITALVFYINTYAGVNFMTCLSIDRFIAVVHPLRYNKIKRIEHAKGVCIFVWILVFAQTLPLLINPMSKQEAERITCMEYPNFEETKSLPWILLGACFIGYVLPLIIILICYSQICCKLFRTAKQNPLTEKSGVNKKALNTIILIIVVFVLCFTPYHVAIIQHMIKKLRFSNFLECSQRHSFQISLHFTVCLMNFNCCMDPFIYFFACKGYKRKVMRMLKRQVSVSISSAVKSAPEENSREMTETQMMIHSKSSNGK
- assay_notes: Agonist activity at Go2-q-coupled EBI2 (unknown origin) expressed in COS7 cell membranes assessed as stimulation of [35S]GTPgammaS binding preincubated for 20 mins followed by [35S]GTPgammaS addition and measured after 1 hr by scintillation counting analysis
- Format: functional, Membrane
Let's look at some molecules and their measured pEC50.
pEC50 field: float, defined as -log10 of concentration (mol/L).

molecule | pEC50
C[C@H](CCCC(C)(C)O)[C@H]1CC[C@H]2[C@@H]3[C@@H](O)C=C4C[C@@H](O)CC[C@]4(C)[C@H]3CC[C@]12C | 8.68

The molecule listed as `C[C@H](CCCC(C)(C)O)[C@H]1CC[C@H]2[C@@H]3[C@H](O)C=C4C[C@@H](O)CC[C@]4(C)[C@H]3CC[C@]12C` shows pEC50 equal to 9.85

pEC50 reading for CC(CO)CCC[C@@H](C)[C@H]1CC[C@H]2[C@H]3C(CC[C@]12C)[C@@]1(C)CC[C@H](O)CC1=C[C@@H]3O (single isomer, unassigned) : 7.29

Lab note: measured pEC50 of CC(CO)CCC[C@@H](C)[C@H]1CC[C@H]2[C@H]3C(CC[C@]12C)[C@@]1(C)CC[C@H](O)CC1=C[C@H]3O (single isomer, unassigned) was 8.89

###

- assay_notes: Terminal half life in mouse at 20 mg/kg, sc
- Assay type: ADME, organism-based
- protocol_conditions: in vivo, read-out: beta t1/2 (converted)
parameter_measured: half-life (min)
The figure you give is taken to be in min; do not add the unit.

For reference, reported half-life for `C[C@H](CCCC(C)(C)O)[C@H]1CC[C@H]2[C@@H]3[C@H](O)C=C4C[C@@H](O)CC[C@]4(C)[C@H]3CC[C@]12C` stands at 30

###

- assay_notes: AUClast in mouse at 20 mg/kg, sc
- Assay type: ADME, organism-based
- Set-up: time 0 - last, route subcutaneous, dose 20 mg/kg
- protocol_conditions: in vivo
parameter_measured: AUC(0-t) (ng·h/mL)
Supply the numeric figure in ng·h/mL, leaving out any unit text.

Notebook: `C[C@H](CCCC(C)(C)O)[C@H]1CC[C@H]2[C@@H]3[C@H](O)C=C4C[C@@H](O)CC[C@]4(C)[C@H]3CC[C@]12C` , AUC(0-t) read as 3140

###

- assay_notes: Elimination half-life in po dosed mouse
- Type: ADME, organism-based
- protocol_conditions: in vivo, read-out: beta t1/2 (converted)
parameter_measured: half-life (h)
Just the number please, in h, no unit attached.

Please fill in: half-life reported for `C[C@H](CCCC(C)(C)O)[C@H]1CC[C@H]2[C@H]3[C@H](CC[C@]12C)[C@@]1(C)CC[C@H](O)CC1=C[C@]3(O)C(F)(F)F` = 10

###

Measured half-life, listed per entry for reference.
- assay_notes: Metabolic stability in rat liver microsomes assessed as half life
- Type: ADME, Microsome
# output: bare number, implied unit min

entry_smiles | parameter_measured | observed
C[C@H](CCCC(C)(C)O)[C@H]1CC[C@H]2[C@H]3[C@H](CC[C@]12C)[C@@]1(C)CC[C@H](O)CC1=C[C@]3(O)C(F)(F)F | half-life | 31

Now take the following compound into account.
Query `C[C@H](CCCC(C)(C)O)[C@H]1CC[C@H]2[C@@H]3[C@H](O)C=C4C[C@@H](O)CC[C@]4(C)[C@H]3CC[C@]12C` yields half-life of 15

###

- assay_notes: Metabolic stability in human liver microsomes assessed as half life
- Type: ADME, Microsome
// values below are reported half-life
Report as a plain number; the unit h is understood.

entry_smiles | observed
C[C@H](CCCC(C)(C)O)[C@H]1CC[C@H]2[C@@H]3[C@H](O)C=C4C[C@@H](O)CC[C@]4(C)[C@H]3CC[C@]12C | 0.5

Moving on to the next molecule.
For this molecule ( `C[C@H](CCCC(C)(C)O)[C@H]1CC[C@H]2[C@H]3[C@H](CC[C@]12C)[C@@]1(C)CC[C@H](O)CC1=C[C@]3(O)C(F)(F)F` ), measured half-life is 2.18

###

Reported values of EC50 for individual entries
- target_or_test_system: G-protein coupled receptor 183 (Rattus norvegicus)
- Sequence (D4A7K7 whole entry): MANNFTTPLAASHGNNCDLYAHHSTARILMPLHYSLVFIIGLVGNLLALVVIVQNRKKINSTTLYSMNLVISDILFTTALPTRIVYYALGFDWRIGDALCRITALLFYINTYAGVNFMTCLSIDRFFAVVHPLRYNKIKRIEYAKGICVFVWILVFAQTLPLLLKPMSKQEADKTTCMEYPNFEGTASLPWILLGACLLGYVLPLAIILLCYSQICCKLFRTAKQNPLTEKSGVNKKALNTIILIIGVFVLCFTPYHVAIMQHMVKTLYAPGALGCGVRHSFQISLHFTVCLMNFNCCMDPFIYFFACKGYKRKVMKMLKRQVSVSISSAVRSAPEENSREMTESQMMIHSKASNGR
- assay_notes: Agonist activity at Go2-q-coupled rat EBI2 expressed in COS7 cell membranes assessed as stimulation of [35S]GTPgammaS binding preincubated for 20 mins followed by [35S]GTPgammaS addition and measured after 1 hr by scintillation counting analysis
Dear colleague, please return just the value in nM, with no unit written.

entry_smiles | parameter_measured | observed
C[C@H](CCCC(C)(C)O)[C@H]1CC[C@H]2[C@@H]3[C@H](O)C=C4C[C@@H](O)CC[C@]4(C)[C@H]3CC[C@]12C | EC50 | 1.31
C[C@H](CCCC(C)(C)O)[C@H]1CC[C@H]2[C@H]3[C@H](CC[C@]12C)[C@@]1(C)CC[C@H](O)CC1=C[C@@]3(O)C(F)(F)F | EC50 | 14.4

Kindly review the next compound as well.
Entry `C[C@H](CCCC(C)(C)O)[C@H]1CC[C@H]2[C@H]3[C@H](CC[C@]12C)[C@@]1(C)CC[C@H](O)CC1=C[C@]3(O)C(F)(F)F` ; EC50 = 1.08

###

- assay_notes: Terminal half life in mouse at 20 mg/kg, ip
- Type: ADME, organism-based
- protocol_conditions: in vivo, read-out: beta t1/2 (converted)
parameter_measured: half-life (min)
All answers are understood in min, so give the number only.

The measured half-life associated with `C[C@H](CCCC(C)(C)O)[C@H]1CC[C@H]2[C@@H]3[C@H](O)C=C4C[C@@H](O)CC[C@]4(C)[C@H]3CC[C@]12C` reads 24
